Sourced from patent US20210188843A1

Let's look at some compounds and their measured Papp.
assay-method-text: PAMPA permeability
Format: in vitro ADME
condition-notes: Table 1
# value in ×10⁻⁶ cm/s; strip the unit string

Recorded results for 3 compounds are shown here.
# compound, Papp [×10⁻⁶ cm/s]
measured = [
    ("Cn1c(=N)n(-c2ccc(N3CCOCC3)c(C#N)c2)c2c3cc(-c4ccc(Cl)cc4)ccc3ncc21 [Compound 51]", 81.1),
    ("CCC(=O)/N=c1\\n(C)c2cnc3ccc(-c4ccc(Cl)cc4)cc3c2n1-c1cc(C#N)ccc1C [Compound 9]", 526),
    ("Cc1ccc(C#N)cc1-n1c(=N)n(C)c2cnc3ccc(-c4cccc(CN(C)C)c4)cc3c21 [Compound 24]", 405),
]

Now look at this entry.
# input Please supply the value of reported Papp for the item Cn1c(=N)n(C2CC(N3CCOCC3)C2)c2c3cc(-c4ccc(Cl)cc4)ccc3ncc21 (stereo not shown) [Compound 58]
# output 816

====

assay-method-text: Solubility pH 7.4
Format: physicochemical
condition-notes: aqueous buffer, Table 1
measured-endpoint: solubility

# compound, measured
records = [
    ("Cc1ccc(C(N)=O)cc1-n1c(=N)n(C)c2cnc3ccc(-c4ccc(Cl)cc4)cc3c21 [Compound 92]", "> 44 µg/mL"),
]

# input Please supply the value of reported solubility for the item Cc1cc(NS(C)(=O)=O)c(C#N)cc1-n1c(=N)n(C)c2cnc3ccc(-c4ccc(Cl)cc4)cc3c21 [Compound 123]
# output < 1 µg/mL

# input Please supply the value of reported solubility for the item COc1cccc(-c2ccc3ncc4c(c3c2)n(-c2cc(C#N)ccc2C)c(=N)n4C)c1 [Compound 32]
# output > 42 µg/mL

# input Please supply the value of reported solubility for the item Cc1cc(N2CCC2)c(C#N)cc1-n1c(=N)n(C)c2cnc3ccc(-c4ccc(Cl)cc4)cc3c21 [Compound 110]
# output < 1 µg/mL

====

assay-method-text: Solubility pH 7.4
Assay type: physicochemical
condition-notes: aqueous buffer, Table 1
Let's look at some compounds and their measured solubility.

# cpd-smiles, measured-endpoint, measured
records = [
    ("CCCCOC(=O)/N=c1\\n(C)c2cnc3ccc(-c4ccc(Cl)cc4)cc3c2n1-c1cc(C#N)ccc1C", "solubility", "< 1 µg/mL"),
    ("Cc1cc(N2CCN(CCO)CC2)c(C#N)cc1-n1c(=N)n(C)c2cnc3ccc(-c4ccc(Cl)cc4)cc3c21", "solubility", "> 55 µg/mL"),
]

Now look at this entry.
# input Please supply the value of reported solubility for the item Cn1c(=N)n(-c2cccc(C#N)c2)c2c3cc(-c4ccc(Cl)cc4)ccc3ncc21
# output 3.1 µg/mL

====

Let's look at some compounds and their measured solubility.
assay-method-text: Solubility pH 7.4
Type: physicochemical
condition-notes: aqueous buffer, Table 3

# cpd-smiles, measured
data = [
    ("COc1cc(-c2ccc3ncc4c(c3c2)n(-c2cncnc2C)c(=N)n4C)ccc1F", "< 1 µg/mL"),
    ("Cc1ccc(-c2ccc3ncc4c(c3c2)n(-c2cncnc2C)c(=N)n4C)cc1", "> 38 µg/mL"),
]

Now look at this entry.
# input Please supply the value of reported solubility for the item Cn1c(=N)n(-c2nccc(C(F)(F)F)n2)c2c3cc(-c4cccc(F)c4)ccc3ncc21
# output < 1 µg/mL

====

assay-method-text: Solubility pH 7.4
Type: physicochemical
condition-notes: aqueous buffer, Table 1
measured-endpoint: solubility (µg/mL)
# value in µg/mL; strip the unit string

Recorded results for 5 compounds are shown here.
# compound, result-units, measured
measured = [
    ("Cn1c(=N)n(-c2ccc(N3CCNCC3)c(C#N)c2)c2c3cc(-c4ccc(Cl)cc4)ccc3ncc21 [Compound 49]", "µg/mL", 1),
    ("Cc1ccc(C#N)cc1-n1c(=N)n(C)c2cnc3ccc(-c4ccc(C(N)=O)s4)cc3c21 [Compound 1]", "µg/mL", 14.2),
    ("Cc1cccc(-n2c(=N)n(C)c3cnc4ccc(-c5ccc(Cl)cc5)cc4c32)c1 [Compound 66]", "µg/mL", 4),
    ("Cn1c(=N)n(-c2cncc(C#N)c2)c2c3cc(-c4ccc(Cl)cc4)ccc3ncc21 [Compound 45]", "µg/mL", 7.8),
    ("Cc1ccc(C#N)cc1-n1/c(=N/S(N)(=O)=O)n(C)c2cnc3ccc(-c4ccc(N)nc4)cc3c21 [Compound 101]", "µg/mL", 2.2),
]

# input Please supply the value of reported solubility for the item Cn1c(=N)n(-c2cccc(S(C)(=O)=O)c2)c2c3cc(-c4ccc(Cl)cc4)ccc3ncc21 [Compound 75]
# output 11.7

# input Please supply the value of reported solubility for the item Cc1ccc(C#N)cc1-n1c(=N)n(C)c2cnc3ccc(-c4ccc(Cl)cc4)cc3c21 [Compound 137]
# output 3.6

# input Please supply the value of reported solubility for the item Cn1c(=N)n(-c2ccccc2F)c2c3cc(-c4ccc(Cl)cc4)ccc3ncc21 [Compound 80]
# output 12.4

# input Please supply the value of reported solubility for the item Cc1nc(N2CCOCC2)c(C#N)cc1-n1c(=N)n(C)c2cnc3ccc(-c4ccc(Cl)cc4)cc3c21 [Compound 21]
# output 4.4
